# Test system: Rattus norvegicus
# experiment-notes: Compound was tested for urinary volume excretion in conscious rat at the dose of 10 mg/kg expressed as urinary excretion in treated rats/urinary excretion in control rats
# Assay type: ADME, organism-based, Urine
# Parameters: dose 10 mg/kg
# measurement-setup: in vivo
Provide the recorded Urinary volume for the entries that follow.

// returns reported Urinary volume for input Nc1nc(=O)c(Br)c(-c2ccccc2)[nH]1
2.5

How about NS(=O)(=O)c1cc(C(=O)O)c(NCc2ccco2)cc1Cl [FUROSEMIDE] ?
2.2

// same read-out, input: NS(=O)(=O)c1cc2c(cc1Cl)NCNS2(=O)=O [HYDROCHLOROTHIAZIDE]
2.4

Now consider Oc1nc(O)c(Br)c(-c2ccccc2)n1 and answer again.
1.2

Try this compound next: Cn1c(-c2ccccc2)c(Cl)c(=O)[nH]c1=O
1.1

Same question, Cn1c(N)nc(-c2ccccc2)c(Br)c1=O this time
2.3

Cool, now Cn1c(N)nc(-c2ccccc2)c(I)c1=O
2.2

* * *

# experiment-notes: Potassium salt excretion in conscious rat at the dose of 30 mg/kg expressed as urinary excretion in treated rats/urinary excretion in control rats
# Type: ADME, organism-based, Urine
# Set-up: dose 30 mg/kg
# measurement-setup: in vivo
metric-name: K+ excretion
Answer with a number only.

// returns reported K+ excretion for input Cn1c(N)nc(-c2ccccc2)c(I)c1=O
2.1

Ok, now Oc1nc(O)c(Br)c(-c2ccccc2)n1
1.2

Quick one: NS(=O)(=O)c1cc(C(=O)O)c(NCc2ccco2)cc1Cl [FUROSEMIDE]
2.2

Next entry: NS(=O)(=O)c1cc2c(cc1Cl)NCNS2(=O)=O [HYDROCHLOROTHIAZIDE]
1.5

// repeat for Cn1c(-c2ccccc2)c(Cl)c(=O)[nH]c1=O and report
1.7

// same read-out, input: Nc1nc(=O)c(Br)c(-c2ccccc2)[nH]1
1.5

Note, next up: Cn1c(N)nc(-c2ccccc2)c(Br)c1=O
2.2

* * *

# experiment-notes: Sodium salt excretion in conscious rat at the dose of 10 mg/kg expressed as urinary excretion in treated rats/urinary excretion in control rats
# Format: ADME, organism-based, Urine
# Set-up: dose 10 mg/kg
# measurement-setup: in vivo
Rule: Na+ excretion of 2 or more gives YES; anything lower gives NO.

Has NS(=O)(=O)c1cc2c(cc1Cl)NCNS2(=O)=O [HYDROCHLOROTHIAZIDE] a recorded Na+ excretion greater than or equal to 2?
YES

Please give the result for Nc1nc(=O)c(Br)c(-c2ccccc2)[nH]1 too.
YES

Try the molecule NS(=O)(=O)c1cc(C(=O)O)c(NCc2ccco2)cc1Cl [FUROSEMIDE]
NO

Queued: Cn1c(N)nc(-c2ccccc2)c(I)c1=O
NO

Similarly, Cn1c(N)nc(-c2ccccc2)c(Br)c1=O ?
YES

Continue with Oc1nc(O)c(Br)c(-c2ccccc2)n1
NO

Cn1c(-c2ccccc2)c(Cl)c(=O)[nH]c1=O ?
NO

* * *

Hi there, I'd appreciate the recorded K+ excretion for every entry that follows.
# experiment-notes: Potassium salt excretion in conscious rat at the dose of 100 mg/kg expressed as urinary excretion in treated rats/urinary excretion in control rats
# Format: ADME, organism-based, Urine
# Set-up: dose 100 mg/kg
# measurement-setup: in vivo
Write no unit; give the number alone.

For NS(=O)(=O)c1cc(C(=O)O)c(NCc2ccco2)cc1Cl [FUROSEMIDE] , what is its reported K+ excretion?
3.2

And the next one, Nc1nc(=O)c(Br)c(-c2ccccc2)[nH]1 [BROPIRIMINE] ?
1.3

Now give it for Oc1nc(O)c(Br)c(-c2ccccc2)n1 too.
1.8

Proceed to NS(=O)(=O)c1cc2c(cc1Cl)NCNS2(=O)=O [HYDROCHLOROTHIAZIDE]
1.7

Would you kindly repeat that for Cn1c(N)nc(-c2ccccc2)c(I)c1=O ?
1.6

Now try Cn1c(N)nc(-c2ccccc2)c(Br)c1=O .
2.2

Field entry: Cn1c(-c2ccccc2)c(Cl)c(=O)[nH]c1=O
1.9
